# PROTOCOL_NOTES: MMV: MTT Cytotoxicity Assay Day 7 pi of Assay #11 (NO washout), U87-CD4-CXCR4 cells, % cell death @ 5mM compound
# Format: toxicity, cell-based
# CONDITION_INFO: human, u87-cd4-cxcr4, 5000 µM
MEASURE_NAME: % Cell Death
Lab note: record just the number, no unit beside it.

These recorded examples may help you get a feel for the data.
>>> data_value("Cc1cccc(N2C(=O)C3C(C2=O)C2(c4ccccc4)C(=O)C3(c3ccccc3)C(c3ccc4c(c3)OCO4)=C2c2ccc3c(c2)OCO3)c1 (stereo not given)")
-20
>>> data_value("CCOC(=O)c1c(C)n(-c2ccccc2)c2ccc(OC(=O)c3cc(OC)c(OC)c(OC)c3)cc12")
-19
>>> data_value("CCOC(=O)c1c(NC(=O)c2ccccc2)sc2c(O)c(CN(CC)CC)ccc12")
25

Recorded % Cell Death of Br.CCn1c2c(c(=N)c3c1CCC3)CCCC2 , please.
-11

Recorded % Cell Death of CCCCNCC(O)(c1ccc(Cl)cc1)c1ccc(Cl)cc1 , please.
27

* * *

# PROTOCOL_NOTES: MMV: MTT Cytotoxicity Assay Day 7 pi of Assay #7 (compound washed out Day 1 pi), U87-CD4-CXCR4 cells, % cell death @ 5mM compound
# Assay type: toxicity, cell-based
# CONDITION_INFO: human, u87-cd4-cxcr4, 5000 µM
# Lookup of reported % Cell Death keyed by entry
Lab note: record just the number, no unit beside it.

>>> data_value("CN1CCN(c2ccc(Nc3c4ccccc4nc4ccccc34)cc2)CC1")
-14
>>> data_value("OC(CNC1CCCCC1)Cn1c2ccccc2c2ccccc21 (stereo unspecified)")
-20
>>> data_value("O=c1c2c([nH]c3ccccc13)CCCC2")
-18
>>> data_value("COCCNC(=O)c1ccc(OC2CCN(Cc3ccc(F)c(F)c3)CC2)c(Cl)c1")
-5
>>> data_value("COc1ccc(C2N(C)c3ccccc3N2C)cc1")
-14

Recorded % Cell Death of COc1ccc(NC(=O)C2c3ccccc3C(=O)N(CC(C)C)C2c2cccs2)cc1Cl (stereo unspecified) , please.
-21

Recorded % Cell Death of CCOc1ccc(-c2nonc2NC(=O)c2cccc(C)c2)cc1OCC , please.
-14

Recorded % Cell Death of COc1cc(C(=O)ON=C(N)Cc2cccc3ccccc23)cc(OC)c1OC , please.
4

Recorded % Cell Death of CN(C)CCCNc1c2ccccc2nc2ccccc12 , please.
15

Recorded % Cell Death of Cc1ccc(CN2CCC(C(=O)Nc3ccc(-c4cc5ccccc5[nH]4)cc3)CC2)o1 , please.
20

Recorded % Cell Death of CCOC(=O)c1ccc2[nH]c(-c3ccccc3)cc(=O)c2c1 , please.
96

* * *

# PROTOCOL_NOTES: MMV: MTT Cytotoxicity Assay Day 7 pi of Assay #10 (NO washout), U87-CD4-CCR5 cells, % cell death @ 5mM compound
# Format: toxicity, cell-based
# CONDITION_INFO: human, u87-cd4-ccr5, 5000 µM
MEASURE_NAME: % Cell Death
Lab note: record just the number, no unit beside it.

>>> data_value("O=C(Nc1ccc(-c2nc3cc(NC(=O)c4ccc(Cl)cc4)ccc3[nH]2)cc1)c1ccc(Cl)cc1")
-18

Recorded % Cell Death of O=C1CC(O)(C(F)(F)C(F)(F)F)Oc2ccccc21 (stereo unspecified) , please.
17

Recorded % Cell Death of Cc1ccc(C)c(Cn2c(N3CCC(C(=O)NCc4cccs4)CC3)nc3ccccc32)c1 , please.
98

* * *

# PROTOCOL_NOTES: MMV: MTT Cytotoxicity Assay Day 3 pi, U87-CD4-CCR5 cells, % cell death @ 5mM compound
# Type: toxicity, cell-based
# CONDITION_INFO: human, u87-cd4-ccr5, 5000 µM
# Lookup of reported % Cell Death keyed by entry
Lab note: record just the number, no unit beside it.

These recorded examples may help you get a feel for the data.
>>> data_value("COc1cc(C(=O)Nc2nc3c(cc4c5c(cccc53)CC4)s2)cc(OC)c1OC")
105
>>> data_value("CCOC(=O)C1=C(C)N=c2sc(=Cc3cc(Cl)ccc3O)c(=O)n2C1c1ccc(OC)cc1 (stereo not given)")
-27
>>> data_value("COc1ccc(C2=C(c3ccc(OC)cc3)C3(c4ccccc4)C(=O)C2(c2ccccc2)C2C(=O)N(c4ccc(C)cc4)C(=O)C23)cc1 (stereo not given)")
-42
>>> data_value("CCN(CC)c1cc(C)c2cc(NC(=O)c3cccc(OC)c3)ccc2n1")
-1

Kindly consider the entry below.
Recorded % Cell Death of Cc1ccc(Cn2c(N3CCC(C(=O)NCc4cccs4)CC3)nc3ccccc32)cc1 , please.
5

* * *

# PROTOCOL_NOTES: MMV: MTT Cytotoxicity Assay Day 7 pi of Assay #7 (compound washed out Day 1 pi), U87-CD4-CXCR4 cells, % cell death @ 5mM compound
# Type: toxicity, cell-based
# CONDITION_INFO: human, u87-cd4-cxcr4, 5000 µM
MEASURE_NAME: % Cell Death
Lab note: record just the number, no unit beside it.

These recorded examples may help you get a feel for the data.
>>> data_value("CCOC(=O)c1cnc2c(C)cc(C)cc2c1Nc1ccc(OC)c(OC)c1")
7
>>> data_value("O=C(Nc1ccc(CN2CCOCC2)cc1)c1ccc(-c2cc(Cl)ccc2Cl)o1")
-21
>>> data_value("O=C(Nc1ccsc1C(=O)NC1CCCCC1)c1ccc(F)cc1")
-43
>>> data_value("COc1ccc2sc(N(Cc3cccnc3)C(=O)c3ccc(C#N)cc3)nc2c1")
-25
>>> data_value("COc1ccc(C(=O)Nc2ccc3nc(N4CCCCC4)cc(C)c3c2)cc1OC")
16

Recorded % Cell Death of CCOC(=O)C1CCN(C(=O)CN2C(=O)c3ccccc3C2c2c[nH]c3ccccc23)CC1 (stereo not drawn) , please.
39

Recorded % Cell Death of CCCCCCc1cc(O)c2c3c(c(=O)oc2c1)CCC(C)C3 (stereo not drawn) , please.
16

Recorded % Cell Death of O=C(O)C(=O)O.Oc1ccc(Br)cc1CN1CCN(Cc2cccc(F)c2)CC1 , please.
86

* * *

# PROTOCOL_NOTES: MMV: MTT Cytotoxicity Assay Day 7 pi of Assay #6 (compound washed out Day 1 pi), U87-CD4-CCR5 cells, % cell death @ 5mM compound
# Assay type: toxicity, cell-based
# CONDITION_INFO: human, u87-cd4-ccr5, 5000 µM
MEASURE_NAME: % Cell Death
Lab note: record just the number, no unit beside it.

These recorded examples may help you get a feel for the data.
>>> data_value("COc1ccc(C2c3ccc4ccccc4c3Oc3ncn(CCCn4ccnc4)c(=N)c32)cc1OC (stereo unspecified)")
-22
>>> data_value("CCCCCCc1cc(O)c2c3c(c(=O)oc2c1)CCC(C)C3 (stereo unspecified)")
16
>>> data_value("Cc1ccc(Nc2nc(NCCO)c3ccccc3n2)cc1C")
3
>>> data_value("COc1ccc2c(=O)cc(C(Cl)(Cl)Cl)oc2c1")
23
>>> data_value("Cc1cc(N2CCCC2)nc(Nc2ccc(NC(=O)CCc3ccccc3)cc2)n1")
20

Recorded % Cell Death of COc1cccc(O)c1CN1CCC2(CCCN(Cc3ccc(F)cc3)C2)C1 (stereo unspecified) , please.
-1

Recorded % Cell Death of O=C(Nc1ccc(CN2CCOCC2)cc1)c1ccc(-c2cc(Cl)ccc2Cl)o1 , please.
-8

* * *

# PROTOCOL_NOTES: MMV: MTT Cytotoxicity Assay Day 7 pi of Assay #11 (NO washout), U87-CD4-CXCR4 cells, % cell death @ 5mM compound
# Format: toxicity, cell-based
# CONDITION_INFO: human, u87-cd4-cxcr4, 5000 µM
MEASURE_NAME: % Cell Death
Lab note: record just the number, no unit beside it.

>>> data_value("CN(C)c1ccc(-c2nc3cc(N)ccc3[nH]2)cc1")
-20
>>> data_value("O=c1c2c([nH]c3ccccc13)CCCC2")
-44
>>> data_value("COc1ccc(/C=C2/SC(=Nc3ccccc3)NC2=O)cc1")
66

Recorded % Cell Death of Cl.Oc1ccccc1CNCC12CC3CC(CC(C3)C1)C2 , please.
-2

Recorded % Cell Death of COc1ccc(CN2CCN(Cc3ccccc3)CC2)c(O)c1 , please.
10

Recorded % Cell Death of Oc1c(CN2CCN(c3ccccc3F)CC2)cc(Br)c2cccnc12 , please.
34

Recorded % Cell Death of COc1ccc2nc(C)cc(Nc3ccc(Cl)cc3)c2c1 , please.
117

Recorded % Cell Death of CCN(CC)CCNc1ncnc2c1[nH]c1ccc(Cl)cc12 , please.
-1

Recorded % Cell Death of CCC(=O)Nc1nnc(Cc2ccc(OC)c(OC)c2)s1 , please.
-23

* * *

# Lookup of reported % Cell Death keyed by entry
# PROTOCOL_NOTES: MMV: MTT Cytotoxicity Assay Day 3 pi, U87-CD4-CCR5 cells, % cell death @ 5mM compound
# Assay type: toxicity, cell-based
# CONDITION_INFO: human, u87-cd4-ccr5, 5000 µM

These recorded examples may help you get a feel for the data.
>>> data_value("CN(N=O)C1=C(NC2CCCCC2)C(=O)c2ccccc2C1=O")
41
>>> data_value("CN(C)c1ccc(-c2nc3cc(N)ccc3[nH]2)cc1")
22
>>> data_value("CN1CCN(c2c3c(c(C#N)c4nc5ccccc5n24)CCC3)CC1")
-3
>>> data_value("O=C(Nc1ccc(N2CCN(Cc3ccccc3)CC2)cc1)c1cccs1.O=C(O)C(F)(F)F")
-2
>>> data_value("CC(=O)c1sc(NC(=O)Nc2ccc(C)cc2C)nc1C")
-1
>>> data_value("c1ccc(-c2ccc(-c3nc4ccccc4[nH]3)cc2)cc1")
12
>>> data_value("COc1cccc(Nc2nc(N)c3ccccc3n2)c1.Cl")
-31
>>> data_value("CCOc1ccccc1NC(=O)CN1CCN(C(=O)c2ccco2)CC1")
-66

Recorded % Cell Death of CCC(C)NCC(O)(c1ccc(Cl)cc1)c1ccc(Cl)cc1 (stereo unspecified) , please.
-1

Recorded % Cell Death of CCOc1cc2c(cc1OCC)C(c1cc(Cl)ccc1O)NCC2 (stereo unspecified) , please.
20

Recorded % Cell Death of CCOc1ccc2nc(C)cc(Nc3ccc(N(C)C)cc3)c2c1.Cl , please.
-27
